Data provenance: ChEMBL document CHEMBL3259797

- Tested on: Blood
- measurement.protocol: Biodistribution in Sprague-Dawley rat blood at 14.8 to 18.5 MBq, iv measured at 60 mins post-injection by gamma counting analysis
- Type: ADME, organism-based
- condition.info: in vivo, 1 h
experimental.endpoint: Drug uptake (% ID/g)
Give the number; % ID/g is assumed, so skip it.

Q) Find the recorded Drug uptake belonging to "Cn1cc(-c2ccncc2)c(-c2ccc(OCc3ccc4cc(O[11CH3])ccc4n3)cc2)n1" and report it.
A) 0.21

Q) Then what about the compound "Cn1cc(-c2ccncc2)c(-c2ccc(OCc3cc(O[11CH3])c4ccccc4n3)cc2)n1" ?
A) 0.152

Q) Then what about the compound "Cn1cc(-c2ccncc2)c(-c2ccc(OCc3nc4ccccc4cc3O[11CH3])cc2)n1" ?
A) 0.275

Q) Then what about the compound "Cn1ncc(-c2ccncc2)c1-c1ccc(OCc2cc(O[11CH3])c3ccccc3n2)cc1" ?
A) 0.067
